- system.under.test: BSA (UniProt P02769)
- Sequence (P02769 25-607 limits assumed): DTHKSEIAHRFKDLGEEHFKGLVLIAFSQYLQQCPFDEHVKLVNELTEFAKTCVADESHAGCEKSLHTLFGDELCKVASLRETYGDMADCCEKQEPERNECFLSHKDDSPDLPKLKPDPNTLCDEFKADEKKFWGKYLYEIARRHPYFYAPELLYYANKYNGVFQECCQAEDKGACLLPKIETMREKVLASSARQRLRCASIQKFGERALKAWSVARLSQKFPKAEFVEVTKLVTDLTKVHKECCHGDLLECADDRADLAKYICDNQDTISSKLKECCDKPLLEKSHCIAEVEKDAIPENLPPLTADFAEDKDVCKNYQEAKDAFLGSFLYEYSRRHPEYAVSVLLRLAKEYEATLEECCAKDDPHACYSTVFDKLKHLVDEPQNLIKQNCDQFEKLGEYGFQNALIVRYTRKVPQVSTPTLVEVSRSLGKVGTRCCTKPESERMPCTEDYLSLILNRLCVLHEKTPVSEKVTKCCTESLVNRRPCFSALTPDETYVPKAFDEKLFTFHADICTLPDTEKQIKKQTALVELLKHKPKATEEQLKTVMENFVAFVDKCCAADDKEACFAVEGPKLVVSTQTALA
- method: scFv ELISA
# OD450 annotations
Please state the figure in OD450; there is no need to write the unit.

Lookup result for PcOxP_DB03_G12 (scFv, V domains shown, scFv in periplasmic extract) VH: EVQLLESGGGLVQPGGSLRLSCAASGFTFSDYYMEWVRQAPGKGLEWVAASRNKYNDYTTEYADSVKGRFTISRDNSKNTLYLQMNSLRAEDTAVYYCARDYYGSSYWYFDVWGQGTLVTVSS VL: DIVMTQSPDSLAVSLGERATINCKSSESVYSSKHKKHYLAWYQQKPGQPPKLLIYGASNRYIGVPDRFSGSGSGTDFTLTISSLQAEDVAVYYCAQFYSYPLTFGGGTKVEIK ; measured OD450: 0.08

Lookup result for PcOxP_DB04_D12 (scFv, V domains shown, scFv in periplasmic extract) VH: EVQLLESGGGLVQPGGSLRLSCAASGFTFSDQYMEWVRQAPGKGLEWVAASRNKANDWTTEYADSVKGRFTISRDNSKNTLYLQMNSLRAEDTAVYYCARDYYGSSYWYFDVWGQGTLVTVSS VL: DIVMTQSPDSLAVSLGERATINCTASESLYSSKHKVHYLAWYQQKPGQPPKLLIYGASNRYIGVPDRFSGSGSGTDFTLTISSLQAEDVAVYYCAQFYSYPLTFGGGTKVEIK ; measured OD450: 0.08

Lookup result for PcOxP_DB01_H10 (scFv, V domains shown, scFv in periplasmic extract) VH: EVQLLESGGGLVQPGGSLRLSCAASGFTFSDGYMEWVRQAPGKGLEWVAASRNKNNDYTTEYADSVKGRFTISRDNSKNTLYLQMNSLRAEDTAVYYCARDYYGSSYWYFDVWGQGTLVTVSS VL: DIQMTQSPSSLSASVGDRVTITCTASESLYSSKHKVHYLAWYQQKPGKAPKLLIYGASNRYFGVPSRFSGSGSGTDFTLTISSLQPEDFATYYCAQFYQYPLTFGGGTKVEIK ; measured OD450: 0.08
